Here's what we have: IC50 numbers for PIK3CG (human) (UniProt P48736).
// units = nM; emit number, no label

Determine from records and report IC50 for FC(F)c1nc2ccccc2n1-c1nc(N2CC3CCC(C2)O3)nc(N2CC3CCC(C2)O3)n1 459

Determine from records and report IC50 for CN1CCN(c2ccc(NC(=O)Nc3ccc(-c4nc(N5C6CCC5COC6)nc(N5[C@H](CO)CC[C@@H]5CO)n4)cc3)cc2)CC1 10000

Determine from records and report IC50 for O=C(Nc1ccc(C(=O)Cc2ccccn2)cc1)Nc1ccc(-c2nc(N3CCOCC3)nc(N3CCOCC3)n2)cc1 23

Determine from records and report IC50 for CN(C)CCN(C)C(=O)c1ccc(NC(=O)Nc2ccc(-c3nc(N4CCC4)nc(N4CCOCC4)n3)cc2)cc1 36

Determine from records and report IC50 for FC(F)c1nc2ccccc2n1-c1nc(N2CCOCC2)nc(N2CC3CCC(C2)O3)n1 43

Determine from records and report IC50 for O=C(Nc1ccc(-c2nc(NCCO)nc(N3CC4CCC(C3)O4)n2)cc1)Nc1cccnc1 10000

Determine from records and report IC50 for CN(C)CCNC(=O)c1ccc(NC(=O)Nc2ccc(-c3nc(N4CCCCC4)nc(N4CCOCC4)n3)cc2)cc1 57.5

Determine from records and report IC50 for CN1CCCN(c2nc(-c3ccc(NC(=O)Nc4cccnc4)cc3)nc(N3CC4CCC(C3)O4)n2)C1 10000

====

MEASUREMENT TARGET: PIK3CA (human) (UniProt P42336)
Sequence (P42336 whole entry, looked up): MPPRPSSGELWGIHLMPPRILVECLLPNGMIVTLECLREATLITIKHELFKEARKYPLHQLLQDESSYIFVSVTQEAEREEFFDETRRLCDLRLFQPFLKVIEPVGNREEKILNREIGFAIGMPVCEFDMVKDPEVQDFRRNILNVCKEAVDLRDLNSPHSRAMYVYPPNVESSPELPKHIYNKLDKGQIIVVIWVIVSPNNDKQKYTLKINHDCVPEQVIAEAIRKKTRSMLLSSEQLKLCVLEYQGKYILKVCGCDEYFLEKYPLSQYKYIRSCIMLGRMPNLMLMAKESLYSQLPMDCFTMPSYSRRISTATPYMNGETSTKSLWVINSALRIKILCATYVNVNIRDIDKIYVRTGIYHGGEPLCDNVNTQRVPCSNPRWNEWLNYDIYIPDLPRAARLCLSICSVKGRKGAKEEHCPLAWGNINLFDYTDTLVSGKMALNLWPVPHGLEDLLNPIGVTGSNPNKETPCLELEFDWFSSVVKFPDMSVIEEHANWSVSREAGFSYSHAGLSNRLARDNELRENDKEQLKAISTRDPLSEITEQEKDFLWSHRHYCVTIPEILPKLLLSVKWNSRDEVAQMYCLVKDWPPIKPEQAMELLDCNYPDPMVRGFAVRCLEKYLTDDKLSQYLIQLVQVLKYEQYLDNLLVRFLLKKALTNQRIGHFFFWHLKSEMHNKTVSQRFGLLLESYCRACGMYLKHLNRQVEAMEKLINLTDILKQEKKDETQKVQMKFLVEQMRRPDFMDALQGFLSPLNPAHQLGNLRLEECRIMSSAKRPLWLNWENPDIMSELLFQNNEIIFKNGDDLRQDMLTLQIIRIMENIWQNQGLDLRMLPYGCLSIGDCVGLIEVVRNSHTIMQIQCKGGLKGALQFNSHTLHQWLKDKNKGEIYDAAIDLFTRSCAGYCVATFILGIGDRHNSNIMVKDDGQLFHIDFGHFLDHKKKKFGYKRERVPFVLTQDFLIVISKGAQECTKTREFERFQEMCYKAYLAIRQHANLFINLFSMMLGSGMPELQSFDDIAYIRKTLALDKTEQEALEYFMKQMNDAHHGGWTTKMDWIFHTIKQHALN
MEASURED PROPERTY: IC50 (nM)
// units = nM; emit number, no label

Determine from records and report IC50 for Cc1ccc(-c2nc(-c3ccc(NC(=O)Nc4ccc(C(=O)N5CCCC5)cc4)cc3)nc(N3CCOCC3)n2)cc1 12.5

Determine from records and report IC50 for O=C(Nc1ccc(NCCO)cc1)Nc1ccc(-c2nc(N3C4CCC3COC4)nc(N3C4CCC3COC4)n2)cc1 1460

Determine from records and report IC50 for CC(C)Nc1nc(-c2ccc(NC(=O)Nc3ccc(N4CCN(C)CC4)nc3)cc2)nc(N2CC3CCC(C2)O3)n1 521

Determine from records and report IC50 for O=C(Nc1ccc(C(=O)Cc2ccccn2)cc1)Nc1ccc(-c2nc(N3CCOCC3)nc(N3CCOCC3)n2)cc1 3

Determine from records and report IC50 for CC(C)N1CCN(C(=O)c2ccc(NC(=O)Nc3ccc(-c4nc(C5CCOCC5)nc(N5CCOCC5)n4)cc3)cc2)CC1 3.2

Determine from records and report IC50 for O=C(Nc1ccncc1)Nc1ccc(-c2nc(N3CCC(N4CCOCC4)CC3)nc(N3CC4CCC(C3)O4)n2)cc1 1850

Determine from records and report IC50 for CN(C)CCOc1ccc(NC(=O)Nc2ccc(-c3nc(N4CCSCC4)nc(N4C5CCC4COC5)n3)cc2)cc1 586

Determine from records and report IC50 for FC(F)c1nc2ccccc2n1-c1nc(N2CCOCC2)nc(N2CC3CCC(C2)O3)n1 24

Determine from records and report IC50 for CN(C)CCN(C)C(=O)c1ccc(NC(=O)Nc2ccc(-c3nc(C4CCOCC4)nc(N4CCOCC4)n3)cc2)cc1 0.8

Determine from records and report IC50 for Nc1ccc(-c2nc(-c3ccc(NC(=O)Nc4cccnc4)cc3)nc(N3CC4CCC(C3)O4)n2)cc1 832

Determine from records and report IC50 for Cc1ccc(-c2nc(-c3ccc(NC(=O)Nc4cccc(C(=O)N5CCC(N(C)C)CC5)c4)cc3)nc(N3CCOCC3)n2)cc1 462
